System: HBV
Test: anti-HBV activity in stable transfected HepG2.2.15 cell line, HBV DNA from secreted virions by realtime PCR
Assay type: cell-based, Hepatitis B virus
Conditions: Hepatitis B virus, HepG2.2.15, 144 h, HepG2.2.15 cells, 6 days of treatment, secreted virion HBV DNA; read-out: HBV-HepG2 2.15 EC50

{"Compound": "CCOC(=O)C1=C(CN2CCCCC2)NC(c2ccccn2)=NC1(C)c1ccc(F)cc1 (centres unmarked)", "Readout unit": "µM", "Limit qualifier": ">", "EC50": 100}
{"Compound": "COC(=O)C1=C(C)NC(c2ncccc2F)=NC1(C)c1ccc(F)c(F)c1 (single isomer, unassigned) [Compound 158b]", "Readout unit": "µM", "Limit qualifier": ">", "EC50": 100}
{"Compound": "COC(=O)C1=C(C)NC(c2ccccn2)=NC12c1ccccc1CC2(F)F (centres unmarked)", "Readout unit": "µM", "Limit qualifier": "=", "EC50": 81.8}
{"Compound": "COC(=O)C1=C(C)NC(c2ncc(F)cc2F)=NC12c1ccccc1CC2(F)F (centres unmarked)", "Readout unit": "µM", "Limit qualifier": ">", "EC50": 100}
{"Compound": "COC(=O)C1=C(CN2CCOCC2)NC(c2ccccn2)=NC12CCc1c(F)cccc12 (racemic)", "Readout unit": "µM", "Limit qualifier": "=", "EC50": 0.207}
{"Compound": "COC(=O)C1=C(C)NC(c2ccccn2)=NC12CCOc1ccccc12 (centres unmarked)", "Readout unit": "µM", "Limit qualifier": ">", "EC50": 100}
{"Compound": "CCOC(=O)C1=C(CN2CCOCC2)NC(c2ccccn2)=NC1(C)c1ccc(F)cc1F (centres unmarked)", "Readout unit": "µM", "Limit qualifier": "=", "EC50": 3.07}
{"Compound": "COC(=O)C1=C(CN2CCOCC2)NC(c2ccccn2)=NC12C(F)=Cc1ccccc12 (centres unmarked)", "Readout unit": "µM", "Limit qualifier": "=", "EC50": 0.624}
{"Compound": "COC(=O)C1=C(C)NC(c2ncc(F)cc2F)=NC1(C)c1ccc(Cl)c(F)c1 (centres unmarked)", "Readout unit": "µM", "Limit qualifier": "=", "EC50": 1.11}
{"Compound": "COC(=O)C1=C(C)NC(c2ncc(F)cc2F)=NC1(C)c1ccc(C)c(F)c1 (centres unmarked)", "Readout unit": "µM", "Limit qualifier": "=", "EC50": 9.52}
{"Compound": "COC(=O)C1=C(C)NC(c2nccn2C)=NC1(C)c1ccc(F)c(F)c1 (centres unmarked)", "Readout unit": "µM", "Limit qualifier": ">", "EC50": 25}
{"Compound": "CCOC(=O)C1=C(CN2CCOCC2)NC(c2ccccn2)=NC1(C)c1ccc(F)cc1Cl (centres unmarked)", "Readout unit": "µM", "Limit qualifier": "=", "EC50": 7.39}
{"Compound": "C=CC1=C(C(=O)OC)C(C)(c2ccc(F)c(F)c2)N=C(c2ncc(F)cc2F)N1 (centres unmarked)", "Readout unit": "µM", "Limit qualifier": "=", "EC50": 12.9}
{"Compound": "N#CC1=C(CN2CCOCC2)NC(c2ccccn2)=NC12CCCc1ccccc12 (centres unmarked)", "Readout unit": "µM", "Limit qualifier": "=", "EC50": 18}
{"Compound": "CCOC(=O)C1=C(C)NC(c2ccccn2)=NC1(C)c1ccc(F)cc1 (centres unmarked)", "Readout unit": "µM", "Limit qualifier": ">", "EC50": 25}
{"Compound": "CCOC(=O)C1=C(CN2CCOCC2)NC(c2ccccn2)=NC12CCc1cc(F)ccc12 (centres unmarked)", "Readout unit": "µM", "Limit qualifier": "=", "EC50": 0.405}
{"Compound": "COC(=O)C1=C(C)NC(c2ncc(F)cc2F)=NC12C(=O)Nc1cc(F)ccc12 (centres unmarked)", "Readout unit": "µM", "Limit qualifier": ">", "EC50": 100}
